# System: SW13;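 note: IC50 is inhibition of SW13 cell growth, read out with a cell viability assay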
# procedure text: cells
# Type: functional, cell-based, Homo sapiens
# condition description: Homo sapiens, SW13
# Description: SANGER: Inhibition of human SW13 cell growth in a cell viability assay.
pIC50: −log10 of the molar value.
Would you kindly list pIC50 for each of these molecules?

Name the reported pIC50 value associated with the molecule Nc1ccn([C@@H]2O[C@H](CO)[C@@H](O)[C@@H]2O)c(=O)n1 [CYTARABINE]
6.32

Give its pIC50 value. Item: O=C(NOCC1CC1)c1ccc(F)c(F)c1Nc1ccc(I)cc1Cl [CI-1040]
< 5.00

Would you kindly share the measured pIC50 for Cc1ccc(Nc2nccc(N(C)c3ccc4c(C)n(C)nc4c3)n2)cc1S(N)(=O)=O [PAZOPANIB] ?
< 5.10

Fill blank: measured pIC50 of the molecule COc1ccc(-c2ccc3c(N4CCOC[C@@H]4C)nc(N4CCOC[C@@H]4C)nc3n2)cc1CO [AZD-8055] is ____.
6.01

Form field: reported pIC50 of C[C@]1(O)C[C@@H](c2nc(-c3ccc4ccc(-c5ccccc5)nc4c3)c3c(N)nccn32)C1 [LINSITINIB]
< 5.59

Using the record for CCOc1nc(NC(=O)Cc2cc(OC)ccc2OC)cc(N)c1C#N , report its pIC50.
< 5.00

Returns the measured pIC50 for the input molecule. Input: O=C(c1cc(Cc2n[nH]c(=O)c3ccccc23)ccc1F)N1CCN(C(=O)C2CC2)CC1 [OLAPARIB]
< 5.30
